Please go through the items and note down their DHFR expression.
- Test system: genes specific for sensitization (BRAK, CTSS, DAPK2, FABP4, HSP27, IL18, HSP90, IL1R2, TPSAB1, CXCR1, DEFB1, DHFR, EHF, IVL, KRT4, MELANA, NGAL, PDZK1IP1, PI3 …)
- assay.text: Expression of the other (non-ARE) sensitization-specific genes in EPISKIN reconstructed skin (quantitative RT-PCR)
- Assay type: cell-based, human
- settings: 10%, compared to the control

Query: If you can, please state the reported DHFR expression value of `C=CCc1ccc(O)c(OC)c1` .
Reply: 0.8

Query: Now this one: `O=CC=O`
Reply: 0.9

Query: How about `CC=Cc1ccc(O)c(OC)c1` ?
Reply: 0.9

Query: Again, but for CC(O)C(=O)O (stereo not shown)
Reply: 1.0

* * *

Kindly supply the reported KRT4 expression values for the records listed here.
- Tested on: genes specific for sensitization (BRAK, CTSS, DAPK2, FABP4, HSP27, IL18, HSP90, IL1R2, TPSAB1, CXCR1, DEFB1, DHFR, EHF, IVL, KRT4, MELANA, NGAL, PDZK1IP1, PI3 …)
- assay.text: Expression of the other (non-ARE) sensitization-specific genes in EPISKIN reconstructed skin (quantitative RT-PCR)
- Type: cell-based, human
- settings: 50%, compared to the control
Give the value as a plain number.

Query: Find the recorded KRT4 expression belonging to CC(O)C(=O)O (stereo not shown) and report it.
Reply: 0.8

Query: Input `O=CC=O`
Reply: 0.6

Query: Same question, `CC=Cc1ccc(O)c(OC)c1` this time
Reply: 1.2

Query: Further, for `C=CCc1ccc(O)c(OC)c1` ?
Reply: 4.6

* * *

- System: genes specific for sensitization (BRAK, CTSS, DAPK2, FABP4, HSP27, IL18, HSP90, IL1R2, TPSAB1, CXCR1, DEFB1, DHFR, EHF, IVL, KRT4, MELANA, NGAL, PDZK1IP1, PI3 …)
- assay.text: Expression of the other (non-ARE) sensitization-specific genes in EPISKIN reconstructed skin (quantitative RT-PCR)
- Format: cell-based, human
- settings: 50%, compared to the control
Give BRAK expression for every item shown.
Would you mind answering with just the numeric figure?

Query: Could you share which BRAK expression value was measured for CC(O)C(=O)O (stereo not shown) ?
Reply: 0.7

Query: // same read-out, input: `CC=Cc1ccc(O)c(OC)c1`
Reply: 0.6

Query: Same lookup for `O=CC=O` , please.
Reply: 0.5

Query: Try this compound next: `C=CCc1ccc(O)c(OC)c1`
Reply: 0.4

* * *

- Test system: genes specific for sensitization (BRAK, CTSS, DAPK2, FABP4, HSP27, IL18, HSP90, IL1R2, TPSAB1, CXCR1, DEFB1, DHFR, EHF, IVL, KRT4, MELANA, NGAL, PDZK1IP1, PI3 …)
- assay.text: Expression of the other (non-ARE) sensitization-specific genes in EPISKIN reconstructed skin (quantitative RT-PCR)
- Format: cell-based, human
- settings: 50%, compared to the control
quantity.name: IL18 expression
// print number alone

Query: Bench note: what IL18 expression did `CC=Cc1ccc(O)c(OC)c1` show?
Reply: 0.8

Query: What about this molecule? `C=CCc1ccc(O)c(OC)c1`
Reply: 0.7

Query: How about this molecule: CC(O)C(=O)O (stereo not shown)
Reply: 0.8

Query: What would you report for `O=CC=O` ?
Reply: 1.0
